experimentalTarget: Solute carrier organic anion transporter family member 1B1 (Homo sapiens)
Sequence (Q9Y6L6 whole entry): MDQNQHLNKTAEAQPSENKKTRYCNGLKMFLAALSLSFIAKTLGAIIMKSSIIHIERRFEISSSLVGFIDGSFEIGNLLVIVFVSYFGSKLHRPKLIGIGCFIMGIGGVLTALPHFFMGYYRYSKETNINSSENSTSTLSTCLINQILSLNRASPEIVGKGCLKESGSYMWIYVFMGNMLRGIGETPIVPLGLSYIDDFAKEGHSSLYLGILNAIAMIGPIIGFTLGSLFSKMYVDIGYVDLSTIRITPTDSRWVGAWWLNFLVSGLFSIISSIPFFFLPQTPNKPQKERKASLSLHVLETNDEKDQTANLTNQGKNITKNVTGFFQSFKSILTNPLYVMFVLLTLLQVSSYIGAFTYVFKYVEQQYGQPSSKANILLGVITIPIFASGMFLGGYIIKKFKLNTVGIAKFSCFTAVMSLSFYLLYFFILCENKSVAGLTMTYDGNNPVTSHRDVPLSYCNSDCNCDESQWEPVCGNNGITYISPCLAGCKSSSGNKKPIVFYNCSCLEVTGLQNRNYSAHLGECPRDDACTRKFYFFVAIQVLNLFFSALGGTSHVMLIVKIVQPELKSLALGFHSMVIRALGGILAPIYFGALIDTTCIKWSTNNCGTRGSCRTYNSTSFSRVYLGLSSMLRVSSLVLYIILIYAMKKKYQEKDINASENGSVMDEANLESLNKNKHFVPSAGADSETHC
runDescription: Inhibition of human liver OATP1B1 expressed in HEK293 Flp-In cells assessed as reduction in E17-betaG uptake at 20 uM by scintillation counting
protocolConditions: hek293, 20 µM
measureName: INH (%)
Respond with the bare value in %.

CC(C)NCC(O)COc1cccc2ccccc12 (stereo not given): 8.9
CNCCC(Oc1ccc(C(F)(F)F)cc1)c1ccccc1 (stereo not given): 21.8
CSc1ccc2c(c1)N(CCC1CCCCN1C)c1ccccc1S2 (stereo not given): 26.1
O=C1CC2(CCCC2)CC(=O)N1CCCCN1CCN(c2ncccn2)CC1: 33.3
CCOC(=O)C1=C(C)NC(C)=C(C(=O)OC)C1c1cccc(Cl)c1Cl (stereo not given): 36.6
CCOc1cc(CC(=O)N[C@@H](CC(C)C)c2ccccc2N2CCCCC2)ccc1C(=O)O [REPAGLINIDE]: 88.4
COc1c2occc2cc2ccc(=O)oc12: 38.1
CN(C)CC/C=C1/c2ccccc2Sc2ccc(Cl)cc21: 24
COCCCC/C(=N\OCCN)c1ccc(C(F)(F)F)cc1: 43.8

We now examine a further compound.
Qu. Which INH is reported for this compound? CC(C)NCC(O)c1ccc(NS(C)(=O)=O)cc1 (stereo not given)
Ans. 46.4
